System: DU-145 prostate
Test description: NCI tumour cell line growth inhibition, 48 h
Quantity kind: TGI

The following molecules have reported results that may help.
CCCCCCCCCCCCCCCCOP(=O)([O-])OCC[N+](C)(C)C1CC(C)(C)N(O)C(C)(C)C1	> 100 µM
Cc1ccc2c(=O)cc(-c3cc(C)sc3C)[nH]c2n1	> 94.5 µM
CCOC(=O)C#Cc1c(C(=O)OCC)nnn1[C@@H]1O[C@H](COC)[C@@H](OC)[C@H]1OC	22.4 µM
CCCCCC(=O)OC[n+]1cccc(-c2c(COC(=O)NC(C)C)c(COC(=O)NC(C)C)c3n2CCC3)c1	> 100 µM

// moving on: another record for TGI
INPUT: Find the measured TGI of CCOC(=O)c1c(Cl)c2c(n1Cc1ccccc1)-c1oncc1CCC2 with DU-145 prostate as test system.
OUTPUT: > 100 µM

* * *

System: HCC-2998 colon
Test description: NCI tumour cell line growth inhibition, 48 h
Quantity kind: GI50

O=C(/C=C(\[O-])c1ccccc1)CCCCCCC(=O)/C=C(\[O-])c1ccccc1.O=C(/C=C(\[O-])c1ccccc1)CCCCCCC(=O)/C=C(\[O-])c1ccccc1.O=C(/C=C(\[O-])c1ccccc1)CCCCCCC(=O)/C=C(\[O-])c1ccccc1.[Y+3].[Y+3]	> 50 µM
O=C1NC(=O)N(S(=O)(=O)c2cc(C(=O)Nc3ccc(Cl)cc3)c(Cl)cc2S)S(=O)(=O)N1	12.9 µM
O=c1c(Oc2ccc(F)cc2F)cc2cnc(NC3CCOCC3)nc2n1C1CC1	> 25 µM

// moving on: another record for GI50
INPUT: Retrieve GI50 measured for Cc1ccc(-c2nc([P+](c3ccccc3)(c3ccccc3)c3ccccc3)c(N3CCOCC3)o2)cc1 and print it.
OUTPUT: 0.517 µM

* * *

Test system: SN12C renal
Test description: NCI tumour cell line growth inhibition, 48 h
Quantity kind: TGI

c1cc(OCCCCCOc2cccc(-c3nc4ccccc4[nH]3)c2)cc(-c2nc3ccccc3[nH]2)c1	> 100 µM
N#Cc1c(CC(=O)O)cc(=O)n2c1[nH]c1ccccc12	> 100 µM
FC(F)(F)c1cccc(CNC2CCN(CCc3ccccc3)CC2)c1	> 100 µM
CC1OC(OC2C(OC(=O)[C@]34CCC(C)(C)C[C@H]3C3=CC[C@@H]5[C@@]6(C)CC[C@H](OC7OC(CO)C(O)C(O)C7OC7OC(CO)C(O)C(O)C7O)C(C)(C)[C@@H]6CC[C@@]5(C)[C@]3(C)CC4)OCC(O)C2O)C(O)C(O)C1OC1OCC(O)C(O)C1O (some centres not stated)	9.27 µM

Kindly give each listed record's TGI.
1. CCN(C(=O)N[C@@H](CC(C)C)C(=O)NCC(=O)OC)c1ccccc1
2. Cc1nc2ccccc2n1Cc1nnc(-c2ccccc2)o1
3. CCN(CC)/[N+]([O-])=N/OS(=O)(=O)N(C)C
4. Cc1[nH]c(=O)c2oc3cc4ccccc4cc3c2c1C(=O)O
5. CNS(=O)(=O)NNS(=O)(=O)c1ccc(C)cc1

OUTPUT:
> 100 µM
> 100 µM
> 100 µM
> 10 µM
> 100 µM

Kindly give each listed record's TGI.
1. CC1=C(C(=O)Nc2ccc3[nH]ncc3c2)C(c2ccc(F)cc2)N=C(c2ccc(C(F)(F)F)nc2)N1 (configuration not stated)
2. O=[N+]([O-])c1ccc(N/N=C\c2cc(Br)ccc2O)nc1
3. COc1ccc(-c2c(Nc3ccccn3)nc3c(C4=CCCCC4)c(-c4ccccc4)[nH]n3c2=O)cc1
4. NC(Cc1cc(I)c(Oc2ccc(O)c(I)c2)c(I)c1)C(=O)O (configuration not stated)
5. ON1CCc2c([nH]c3ccccc23)C1c1ccc(Cl)cc1 (configuration not stated)
6. O=C1CSC(c2cc3cc(Br)ccc3nc2Cl)N1c1ccc(Cl)cc1 (configuration not stated)

OUTPUT:
> 25 µM
12.9 µM
> 100 µM
> 100 µM
81 µM
48.7 µM

Kindly give each listed record's TGI.
1. Nc1ccccc1C(=O)/C=C/c1ccccc1O
2. COC(=O)c1c(C)cccc1C1CN=NC12Cc1cc(C)c(C)cc1C2=O (configuration not stated)

OUTPUT:
1: > 100 µM; 2: > 100 µM

* * *

Test system: PC-3 prostate
Test description: NCI tumour cell line growth inhibition, 48 h; in the data active means GI50 below about 0.43 µM; inactive means the rest
Outcomes you can answer with include only these: active, inactive

OC[C@H]1C[C@](O)(c2ccc(F)cc2)[C@@H](c2ccc(F)cc2)O1	inactive
C#CCCCCCC(=O)N[C@H]1C=C[C@@H]2/C=C(C)/C=C/[C@@H](C)[C@H]([C@H](C)[C@H](O)[C@@H](C)NC(C)=O)OC(=O)/C=C/C=C(C)\C=C\[C@]2(C)C1	active

# ---- query compound ----
INPUT: Can you look up the reported call for CC[C@]12C=CCN3CC[C@@]4(c5ccc(OC)cc5N(C)[C@H]4[C@@](O)(C(=O)OC)[C@@H]1OC(=O)CCCN1CCN(CCCC(=O)O[C@@H]4[C@]5(CC)C=CCN6CC[C@@]7(c8ccc(OC)cc8N(C)[C@H]7[C@@]4(O)C(=O)OC)[C@@H]65)CC1)[C@@H]32 for me?
OUTPUT: active

* * *

Tested on: PC-3 prostate
Test description: NCI tumour cell line growth inhibition, 48 h
I'd be grateful if you could share measured TGI for these entries.

Cc1cnc2[nH]c(-c3cccc4ccccc34)cc(=O)c2c1	> 100 µM

Kindly give each listed record's TGI.
1. CC(C)c1ccc2c(c1)CCC1C2CCCC1(C)NCc1ccccc1 (stereo not drawn)
2. O=C(O)CCC(NC(=O)c1ccc(Nc2nc3ccc(C(F)(F)F)cc3nc2C(=O)O)cc1)C(=O)O (stereo not drawn)
3. O=c1[nH]c2ccccc2c2oc3ccccc3c12
4. O=S(=O)(Nc1ccccc1)c1ccc(C2CC3(Cl)C(Cl)=C(Cl)C2(Cl)C3(Cl)Cl)cc1 (stereo not drawn)
5. COc1cc2c(cc1OCCN1CCN(CCN3C(=O)c4cccc5cccc(c45)C3=O)CC1)N=C[C@@H]1CCCN1C2=O

OUTPUT:
["19.3 µM", "> 100 µM", "> 100 µM", "10.2 µM", "32 µM"]

Kindly give each listed record's TGI.
1. NC(CCC(=O)O)C(=O)NC(Cc1ccc(N(CCCl)CCCl)cc1)C(=O)O (stereo not drawn)
2. Cc1ccc2c(c1C)CC1(Cc3ccc(C)c(C)c3C1=O)C2=O (stereo not drawn)

OUTPUT:
1. > 100 µM
2. > 100 µM

* * *

I'd be grateful if you could share measured TGI for these entries.
Test system: U251 CNS
Test description: NCI tumour cell line growth inhibition, 48 h

The following molecules have reported results that may help.
COC(=O)C1CC2CC1C1C2SC(F)(F)C1(F)F (stereo not drawn)	> 100 µM
CCCCCCCCCCCCOC1C(C(COC2OC(C(O)CO)C3OC(C)(C)OC23)OC(=O)Nc2ccccc2)OC2OC(C)(C)OC21 (stereo not drawn)	18 µM

// moving on: another record for TGI
INPUT: Find the measured TGI of CC(=O)Oc1ccc(-c2nnc(-c3ccc(OC(C)=O)cc3)nn2)cc1 with U251 CNS as test system.
OUTPUT: > 100 µM

* * *

Tested on: SF-295 CNS
Test description: NCI tumour cell line growth inhibition, 48 h
I'd be grateful if you could share measured TGI for these entries.

The following compounds have reported results that may help.
CC1C(OS(=O)(=O)c2ccc3[nH]c(=S)sc3c2)CC2C3(C)CCC2(C(C)C(=O)O)C(O)C13 (centres undefined)	95.1 µM
C/C(=C\c1csc(C)n1)[C@@H]1C[C@@H]2O[C@]2(C)CCC[C@H](C)[C@H](O)[C@@H](C)C(=O)C(C)(C)[C@@H](O)CC(=O)N1	0.000423 µM
CCN(CC)c1ccc(Cl)c2c1C(O)(C(C)C)C2(C)C (centres undefined)	33 µM
COc1ccc(C(C)Nc2cc(OC)c(OC)c(OC)c2)cc1 (centres undefined)	7.53 µM

Kindly give each listed record's TGI.
1. N#Cc1c(CC(=O)O)cc(=O)n2c1[nH]c1ccccc12
2. CCOC(=O)C#Cc1c(C(=O)OCC)nnn1[C@@H]1O[C@H](COC)[C@@H](OC)[C@H]1OC

OUTPUT:
1. > 100 µM
2. > 100 µM

Kindly give each listed record's TGI.
1. Cc1ccccc1NC(=O)C1C(=O)N(c2ccccc2C)C(=O)/C1=N\NC(N)=O (centres undefined)
2. CCN(C(=O)N[C@@H](CC(C)C)C(=O)NCC(=O)OC)c1ccccc1
3. O=S(=O)(Nc1ccccc1)c1ccc(C2CC3(Cl)C(Cl)=C(Cl)C2(Cl)C3(Cl)Cl)cc1 (centres undefined)
4. COc1ccc(/C=C2\C[C@H]3[C@@H]4CC=C5C[C@@H](O)CC[C@]5(C)[C@H]4CC[C@]3(C)\C2=N\O)cc1

OUTPUT:
1. > 100 µM
2. > 100 µM
3. 5.97 µM
4. 34.8 µM

Kindly give each listed record's TGI.
1. CCCN1C(=O)CN(S(=O)(=O)c2ccc(Cl)cc2)C1=O
2. C=CCN(CC=C)Cc1c[nH]c2ccccc12

OUTPUT:
1. > 100 µM
2. > 100 µM

Kindly give each listed record's TGI.
1. C#CCCCCCC(=O)N[C@H]1C=C[C@@H]2/C=C(C)/C=C/[C@@H](C)[C@H]([C@H](C)[C@H](O)[C@@H](C)NC(C)=O)OC(=O)/C=C/C=C(C)\C=C\[C@]2(C)C1
2. O=c1c(Oc2ccc(F)cc2F)cc2cnc(NC3CCOCC3)nc2n1C1CC1
3. NCCc1ccc(S(=O)(=O)O)cc1[N+](=O)[O-]
4. COC(=O)C1=C(OC)C(=P2(c3ccccc3)CC(c3ccccc3)=C2c2ccccc2)C(C(=O)OC)=C1C(=O)OC (centres undefined)

OUTPUT:
0.0182 µM
> 25 µM
> 100 µM
> 100 µM
